- target: EGFR L858R (BaF3-L858R cells) (Homo sapiens, UniProt P00533, L858R)
- Construct: host or cells: BaF3
- Sequence (P00533 25-1210 L858R): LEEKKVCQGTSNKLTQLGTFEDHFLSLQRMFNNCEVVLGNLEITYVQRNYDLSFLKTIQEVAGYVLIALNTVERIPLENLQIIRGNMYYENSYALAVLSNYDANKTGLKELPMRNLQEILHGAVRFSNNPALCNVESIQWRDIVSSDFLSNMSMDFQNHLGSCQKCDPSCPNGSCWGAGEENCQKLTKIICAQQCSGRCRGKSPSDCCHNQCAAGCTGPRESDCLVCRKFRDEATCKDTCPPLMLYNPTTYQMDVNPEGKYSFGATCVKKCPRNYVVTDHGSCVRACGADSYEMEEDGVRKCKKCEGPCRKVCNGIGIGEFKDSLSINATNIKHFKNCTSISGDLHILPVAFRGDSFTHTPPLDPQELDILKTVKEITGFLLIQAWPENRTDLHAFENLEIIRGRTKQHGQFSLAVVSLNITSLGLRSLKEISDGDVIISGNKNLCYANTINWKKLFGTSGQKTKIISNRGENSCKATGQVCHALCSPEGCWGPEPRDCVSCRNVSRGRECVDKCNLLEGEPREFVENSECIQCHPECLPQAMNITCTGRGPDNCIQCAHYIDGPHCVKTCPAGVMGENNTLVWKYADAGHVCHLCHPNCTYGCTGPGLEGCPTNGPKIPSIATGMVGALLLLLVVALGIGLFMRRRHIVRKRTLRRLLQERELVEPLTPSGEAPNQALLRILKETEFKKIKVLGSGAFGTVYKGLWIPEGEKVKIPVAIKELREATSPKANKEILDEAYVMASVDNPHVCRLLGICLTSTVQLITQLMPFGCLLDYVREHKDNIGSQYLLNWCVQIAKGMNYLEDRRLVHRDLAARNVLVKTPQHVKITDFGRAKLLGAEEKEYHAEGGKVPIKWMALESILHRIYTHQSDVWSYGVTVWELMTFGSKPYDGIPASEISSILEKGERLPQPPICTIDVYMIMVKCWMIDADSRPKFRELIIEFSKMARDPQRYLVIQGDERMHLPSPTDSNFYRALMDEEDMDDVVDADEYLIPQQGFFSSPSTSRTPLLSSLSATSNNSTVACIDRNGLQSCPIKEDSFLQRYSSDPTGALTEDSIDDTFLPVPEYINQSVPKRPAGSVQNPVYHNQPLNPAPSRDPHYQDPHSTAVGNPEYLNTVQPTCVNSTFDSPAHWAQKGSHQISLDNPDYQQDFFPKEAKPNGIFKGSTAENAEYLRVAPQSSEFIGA
- assay-procedure: Cell degradation of EGFR, HTRF assay, BaF3-L858R cells
- Type: cell-based
- measurement-context: 16 h treatment, maximum percentage of degradation
measured-quantity: Dmax (%)
Use % as the unit, but write only the number.

So for Cc1cc2cc(n1)-c1c(C)nn(C)c1OC[C@H]1CC[C@H](C1)CN1/C(=N/C2=O)Nc2ccc(N3CCN(C4CCN(c5cc(F)c([C@H]6CCC(=O)NC6=O)c(F)c5)CC4)[C@@H](CC#N)C3)cc21 , the logged Dmax turned out to be 88.1

So for COC[C@@H]1CN(c2ccc3c(c2)N2C[C@@H]4CC[C@H](COc5c(cnn5C)-c5cc(cc(C)n5)C(=O)/N=C/2N3)C4)CCN1CC1CN(c2ccc3c(c2)CN(C2CCC(=O)NC2=O)C3=O)C1 (stereo partly drawn) , the logged Dmax turned out to be 90

So for Cc1cc2cc(n1)-c1c(C(F)F)nn(C)c1OC[C@H]1CCC(C1)CN1/C(=N/C2=O)Nc2ccc(N3CCN(C4CCN(c5c(F)cc(NC6CCC(=O)NC6=O)cc5F)CC4)CC3)cc21 (stereo partly drawn) , the logged Dmax turned out to be 82.3

So for COC[C@@H]1CN(c2ccc3c(c2)N2CC4CC[C@H](COc5c(c(C)nn5C)-c5cc(cc(C)n5)C(=O)/N=C/2N3)C4)CCN1C1CCN(c2c(F)cc(NC3CCC(=O)NC3=O)cc2F)CC1 (stereo partly drawn) , the logged Dmax turned out to be 85.7

So for Cc1cc2cc(n1)-c1c(C)nn(C)c1OC[C@H]1CCC(C1)CN1/C(=N/C2=O)Nc2ccc(N3CCN([C@@H]4CCN(c5cc(F)c(C6CCC(=O)NC6=O)nc5C)C[C@@H]4F)CC3)cc21 (stereo partly drawn) , the logged Dmax turned out to be 74.1

So for Cc1cc2cc(n1)-c1cnn(C)c1OC[C@H]1CC[C@H](C1)CN1/C(=N/C2=O)Nc2ccc(N3CCN(C4CCN(c5cc(F)c(C6CCC(=O)NC6=O)nc5C)CC4)CC3)cc21 (stereo partly drawn) , the logged Dmax turned out to be 101

So for COC[C@@H]1CN(c2cc3c(cc2F)N/C2=N\C(=O)c4cc(C)nc(c4)-c4c(C)nn(C)c4OC[C@H]4CC[C@H](C4)CN23)CCN1C1CCN(c2cc(F)c([C@H]3CCC(=O)NC3=O)c(F)c2)CC1 , the logged Dmax turned out to be 86.5

So for Cc1cc2cc(n1)-c1c(C)nn(C)c1OC[C@H]1CC[C@H](C1)CN1/C(=N/C2=O)Nc2ccc(N3CCN([C@H]4CCN(c5cc(F)c([C@H]6CCC(=O)NC6=O)c(F)c5)C4)CC3)cc21 (single isomer, unassigned) , the logged Dmax turned out to be 80

So for Cc1cc2cc(n1)-c1cnn(C)c1OC[C@H]1CCC(C1)CN1/C(=N/C2=O)Nc2ccc(N3CCN([C@@H]4CCN(c5ccc(C6CCC(=O)NC6=O)nc5C)CC4(F)F)CC3)cc21 (stereo partly drawn) , the logged Dmax turned out to be 82.7

// provenance: patent US20240425523A1
